tested on: Trypanosoma cruzi; test: DNDI: Chagas in vitro; format: functional, organism-based, Tulahuen C4 (LacZ); details: Trypanosoma cruzi, Tulahuen C4 (LacZ)
pIC50: −log10 of the molar value.
ASSAY ENDPOINT: pIC50

>>> endpoint_value("O=C(C(c1ccc(Cl)cc1)c1cncnc1)N1CCN(c2ccc(C(F)(F)F)cn2)CC1 (stereo not given)")
6.79
>>> endpoint_value("O=C(C(c1ccc(Cl)cc1)c1cccnc1)N1CCN(c2nccs2)CC1 (stereo not given)")
7.29
>>> endpoint_value("O=C(C(c1ccc(Cl)cc1)c1cncnc1)N1CCN(c2ccc(C(F)(F)F)cc2)CC1 (stereo not given)")
6.93
>>> endpoint_value("O=C(C(c1ccc(Cl)cc1)c1cccnc1)N1CCN(Cc2cccc(C(F)(F)F)c2)CC1 (stereo not given)")
7.83
>>> endpoint_value("CS(=O)(=O)c1ccc(N2CCN(C(=O)C(c3ccc(Cl)cc3)c3cncnc3)CC2)cc1 (stereo not given)")
7.11

---

assay: DNDI: Cytotoxicity against L-6 rat myoblasts from skeletal muscle; format: toxicity, cell-based, Muscle tissue, L6; details: rat, L6 rat skeletal muscle myoblasts
pIC50: −log10 of the molar value.
pIC50: recorded values
ASSAY ENDPOINT: pIC50

>>> endpoint_value("O=C(C(c1ccc(Cl)cc1)c1cncnc1)N1CCN(c2ccc(C(F)(F)F)cc2)CC1 (stereo unspecified)")
4.29
>>> endpoint_value("O=C(C(c1ccc(Cl)cc1)c1cccnc1)N1CCN(Cc2ccccc2C(F)(F)F)CC1 (stereo unspecified)")
4.27
>>> endpoint_value("O=C(C(c1ccc(Cl)cc1)c1cccnc1)N1CCN(c2ccc(C(F)(F)F)cc2)CC1 (stereo unspecified)")
4.42

---

microsomal CLint: recorded values
assay: DNDI: Metabolism; assay type: ADME, Microsome; conditions: human, microsomes
ASSAY ENDPOINT: microsomal CLint (µL/min/mg)

>>> endpoint_value("N#Cc1ccc(C(C(=O)N2CCN(c3ccc(C(F)(F)F)nc3)CC2)c2cccnc2)cc1 (stereo not given)")
12
>>> endpoint_value("O=C(C(c1ccc(Cl)cc1)c1cccnc1)N1CCN(Cc2ccccc2C(F)(F)F)CC1 (stereo not given)")
460
>>> endpoint_value("O=C(C(c1ccc(Cl)cc1)c1cncnc1)N1CCN(c2ccc(C(F)(F)F)cn2)CC1 (stereo not given)")
76
>>> endpoint_value("O=C(C(c1ccc(Cl)cc1)c1cccnc1)N1CCN(c2ccc(C(F)(F)F)cc2)CC1 (stereo not given)")
20
>>> endpoint_value("N#Cc1ccc(C(C(=O)N2CCN(c3ccc(C(F)(F)F)cc3)CC2)c2cccnc2)cc1 (stereo not given)")
35
>>> endpoint_value("N#Cc1ccc(C(C(=O)N2CCN(c3ccc(C(F)(F)F)cn3)CC2)c2cccnc2)cc1 (stereo not given)")
29
>>> endpoint_value("O=C(C(c1ccc(Cl)cc1)c1cccnc1)N1CCN(c2ccc(C(F)(F)F)nc2)CC1 (stereo not given)")
42
>>> endpoint_value("O=C(C(c1ccc(Cl)cc1)c1cncnc1)N1CCN(c2ccc(C(F)(F)F)nc2)CC1 (stereo not given)")
56
>>> endpoint_value("O=C(C(c1ccc(Cl)cc1)c1cncnc1)N1CCN(c2ccc(C(F)(F)F)cc2)CC1 (stereo not given)")
59
>>> endpoint_value("O=C(C(c1ccc(Cl)cc1)c1cccnc1)N1CCN(c2ccc(C(F)(F)F)cn2)CC1 (stereo not given)")
42

---

experiment: DNDI: Metabolism; format: ADME, 10116, Microsome; conditions: rat, microsomes
ASSAY ENDPOINT: half-life

>>> endpoint_value("O=C(C(c1ccc(Cl)cc1)c1cccnc1)N1CCN(c2ccc(C(F)(F)F)cc2)CC1 (stereo unspecified)")
"46 min"
